- TARGET_ENTITY: UniProtKB P08173
- MEASUREMENT_NOTES: [3H]NMS competition binding, M4 CHO membranes
- Parameters: host or cells: CHO cells, stably transfected
- CONDITION_SET: Inhibition constants (Ki) as negative logarithms, M4, competition with 1 nM [3H]NMS
MEASUREMENT_KIND: Ki (µM)

C[N+]1(Cc2ccc(Cl)s2)CC=CCC1.[I-] (stereo not shown)
3.09

* * *

- TARGET_ENTITY: M2 muscarinic receptor (Homo sapiens, UniProt P08172)
- Sequence (P08172 1-466): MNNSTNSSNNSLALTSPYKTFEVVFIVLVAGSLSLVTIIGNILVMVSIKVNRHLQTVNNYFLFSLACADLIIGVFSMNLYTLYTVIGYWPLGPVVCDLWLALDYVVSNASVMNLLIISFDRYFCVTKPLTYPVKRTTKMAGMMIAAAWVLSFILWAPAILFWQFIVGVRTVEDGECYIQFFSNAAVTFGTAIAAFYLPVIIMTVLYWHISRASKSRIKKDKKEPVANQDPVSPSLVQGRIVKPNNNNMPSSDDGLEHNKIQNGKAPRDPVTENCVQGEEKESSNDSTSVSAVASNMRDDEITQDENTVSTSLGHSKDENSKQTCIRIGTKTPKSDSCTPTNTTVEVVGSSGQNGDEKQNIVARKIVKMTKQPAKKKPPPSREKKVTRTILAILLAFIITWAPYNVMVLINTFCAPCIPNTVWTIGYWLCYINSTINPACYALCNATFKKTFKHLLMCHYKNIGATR
- MEASUREMENT_NOTES: stimulation of cAMP, M2 CHO cells (M2Gs)
- Assay type: cell-based
- Set-up: host or cells: CHO cells, stably transfected
pKd: −log10 of the molar value.
MEASUREMENT_KIND: pKd

O=C1CCCN1CC#CCN1CCCC1 [oxotremorine, reference compound]
5.40

* * *

- TARGET_ENTITY: M1 muscarinic receptor (Homo sapiens)
- MEASUREMENT_NOTES: accumulation of inositol phosphates IPX, M1 CHO cells (M1Gq)
- Assay type: cell-based
- Parameters: host or cells: CHO cells, stably transfected
- CONDITION_SET: M1 (↑IPX), preferential response, relative to carbachol; Tables 2, 3, 7
RAi reference
MEASUREMENT_KIND: RAi

Brc1ccc(CN2CC=CCC2)s1.Cl [Compound 6C]
0.0024
C1=CCN(Cc2cccs2)CC1.Cl [Compound 6A]
0.0010
Cc1ccc(CN2CC=CCC2)s1.Cl [Compound 6B]
0.0005
C[N+]1(Cc2cccs2)CC=CCC1.[I-] (stereo not drawn) [Compound 7A]
0.0111
Cc1csc(CN2CC=CCC2)c1.Cl [Compound 6E]
0
Cc1ccc(C[N+]2(C)CC=CCC2)s1.[I-] (stereo not drawn) [Compound 7B]
0.0058

* * *

Attribute: Δlog(τ/KA)
- TARGET_ENTITY: M5 muscarinic receptor (Homo sapiens)
- Sequence (P08912 1-532): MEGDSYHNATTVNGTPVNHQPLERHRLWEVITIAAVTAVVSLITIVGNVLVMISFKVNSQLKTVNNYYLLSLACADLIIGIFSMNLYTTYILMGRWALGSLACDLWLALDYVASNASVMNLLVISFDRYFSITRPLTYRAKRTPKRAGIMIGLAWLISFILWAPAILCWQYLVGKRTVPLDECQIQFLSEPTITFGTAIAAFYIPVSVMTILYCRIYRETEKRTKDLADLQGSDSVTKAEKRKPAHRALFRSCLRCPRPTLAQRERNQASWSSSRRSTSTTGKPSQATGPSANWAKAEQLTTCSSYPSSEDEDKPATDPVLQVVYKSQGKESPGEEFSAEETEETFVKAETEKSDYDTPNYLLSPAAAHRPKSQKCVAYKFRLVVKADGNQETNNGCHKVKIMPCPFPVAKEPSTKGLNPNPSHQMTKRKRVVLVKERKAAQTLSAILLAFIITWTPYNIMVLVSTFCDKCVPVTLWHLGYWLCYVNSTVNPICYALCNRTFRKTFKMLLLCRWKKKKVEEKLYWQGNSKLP
- MEASUREMENT_NOTES: inhibition of forskolin-stimulated cAMP, M5 CHO cells (M5Gi)
- Type: cell-based
- Design: host or cells: CHO cells, stably transfected
- CONDITION_SET: M5Gi (↓cAMP), Table 8, to carbachol
MEASUREMENT_KIND: Δlog(τ/KA)

C[N+](C)(C)CCOC(N)=O [carbachol, reference compound]
0
C[N+]1(Cc2cccs2)CC=CCC1.[I-] (stereo not shown) [Compound 7A]
1.67
C1=CCN(Cc2cccs2)CC1.Cl [Compound 6A]
1.70
O=C1CCCN1CC#CCN1CCCC1 [oxotremorine, reference compound]
−0.79

* * *

- TARGET_ENTITY: M3 muscarinic receptor (Homo sapiens)
- Sequence (P20309 whole entry): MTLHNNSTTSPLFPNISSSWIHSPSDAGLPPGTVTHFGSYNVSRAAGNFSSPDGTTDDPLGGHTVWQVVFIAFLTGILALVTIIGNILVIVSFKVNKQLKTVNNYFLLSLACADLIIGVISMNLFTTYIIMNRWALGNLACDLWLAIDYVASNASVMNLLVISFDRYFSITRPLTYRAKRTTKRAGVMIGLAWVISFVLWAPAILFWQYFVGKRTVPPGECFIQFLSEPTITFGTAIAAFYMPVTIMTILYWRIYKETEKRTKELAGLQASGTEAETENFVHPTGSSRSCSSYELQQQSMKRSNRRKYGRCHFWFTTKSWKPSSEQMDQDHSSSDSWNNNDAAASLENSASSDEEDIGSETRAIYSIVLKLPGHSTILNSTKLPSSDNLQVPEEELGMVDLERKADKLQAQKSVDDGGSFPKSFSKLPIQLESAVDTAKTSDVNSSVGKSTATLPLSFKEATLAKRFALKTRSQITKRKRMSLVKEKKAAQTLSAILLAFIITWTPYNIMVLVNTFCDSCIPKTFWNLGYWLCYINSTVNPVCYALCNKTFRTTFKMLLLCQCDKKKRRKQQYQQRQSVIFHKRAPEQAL
- MEASUREMENT_NOTES: accumulation of IPX, M3 CHO cells transfected with G15 (M3Gq+G15)
- Format: cell-based
- Parameters: host or cells: CHO cells
pKd: −log10 of the molar value.
MEASUREMENT_KIND: pKd

O=C1CCCN1CC#CCN1CCCC1 [oxotremorine, reference compound]
6.40

* * *

- TARGET_ENTITY: M4 muscarinic receptor (Homo sapiens, UniProt P08173)
- Sequence (P08173 whole entry): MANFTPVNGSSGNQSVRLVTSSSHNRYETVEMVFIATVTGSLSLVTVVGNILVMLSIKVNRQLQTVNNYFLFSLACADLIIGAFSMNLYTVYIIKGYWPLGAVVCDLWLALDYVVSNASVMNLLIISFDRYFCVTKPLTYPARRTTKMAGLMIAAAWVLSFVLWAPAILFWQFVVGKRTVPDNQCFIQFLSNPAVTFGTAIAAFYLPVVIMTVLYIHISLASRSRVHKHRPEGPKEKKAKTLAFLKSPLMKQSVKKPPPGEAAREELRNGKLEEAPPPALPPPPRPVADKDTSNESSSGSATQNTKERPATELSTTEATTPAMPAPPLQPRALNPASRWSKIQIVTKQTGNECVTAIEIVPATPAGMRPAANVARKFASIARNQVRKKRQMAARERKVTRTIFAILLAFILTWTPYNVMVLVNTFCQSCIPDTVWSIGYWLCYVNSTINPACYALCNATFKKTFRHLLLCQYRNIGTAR
- MEASUREMENT_NOTES: inhibition of forskolin-stimulated cAMP, M4 CHO cells (M4Gi)
- Format: cell-based
- Design: host or cells: CHO cells, stably transfected
- CONDITION_SET: M4 (↓cAMP), preferential response, to carbachol; Tables 2, 3, 7
MEASUREMENT_KIND: Δlog(τ/KA)

C1=CCN(Cc2cccs2)CC1.Cl [Compound 6A]
2.15
C[N+]1(Cc2ccc(Br)s2)CC=CCC1.[I-] (stereo not drawn) [Compound 7C]
2.26
C[N+]1(Cc2cccs2)CC=CCC1.[I-] (stereo not drawn) [Compound 7A]
1.58
C[N+]1(Cc2ccc(Cl)s2)CC=CCC1.[I-] (stereo not drawn) [Compound 7D]
2.14
Cc1ccc(CN2CC=CCC2)s1.Cl [Compound 6B]
2.51
Brc1ccc(CN2CC=CCC2)s1.Cl [Compound 6C]
2.13
Cc1ccc(C[N+]2(C)CC=CCC2)s1.[I-] (stereo not drawn) [Compound 7B]
1.90
O=C1CCCN1CC#CCN1CCCC1 [oxotremorine, reference compound]
−0.62
C[N+](C)(C)CCOC(N)=O [carbachol, reference compound]
0

* * *

- TARGET_ENTITY: M4 muscarinic receptor (Homo sapiens, UniProt P08173)
- MEASUREMENT_NOTES: accumulation of IPX, M4 CHO cells (M4Gq)
- Assay type: cell-based
- Parameters: host or cells: CHO cells, stably transfected
pKd: −log10 of the molar value.
MEASUREMENT_KIND: pKd

O=C1CCCN1CC#CCN1CCCC1 [oxotremorine, reference compound]
6.70

* * *

- TARGET_ENTITY: M1 muscarinic receptor (Homo sapiens, UniProt P11229)
- Sequence (P11229 whole entry): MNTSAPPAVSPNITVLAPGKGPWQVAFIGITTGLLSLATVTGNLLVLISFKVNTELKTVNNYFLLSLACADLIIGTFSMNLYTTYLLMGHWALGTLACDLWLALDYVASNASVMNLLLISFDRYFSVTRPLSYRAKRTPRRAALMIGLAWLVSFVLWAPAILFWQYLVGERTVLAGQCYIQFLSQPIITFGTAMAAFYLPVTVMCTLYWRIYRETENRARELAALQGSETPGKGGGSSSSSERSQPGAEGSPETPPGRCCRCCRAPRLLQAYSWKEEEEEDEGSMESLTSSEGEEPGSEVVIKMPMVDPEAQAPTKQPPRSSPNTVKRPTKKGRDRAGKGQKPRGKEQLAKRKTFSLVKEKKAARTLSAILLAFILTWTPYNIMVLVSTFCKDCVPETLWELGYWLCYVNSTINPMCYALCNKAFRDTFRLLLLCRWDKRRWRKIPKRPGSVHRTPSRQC
- MEASUREMENT_NOTES: accumulation of inositol phosphates IPX, M1 CHO cells (M1Gq)
- Type: cell-based
- Parameters: host or cells: CHO cells, stably transfected
- CONDITION_SET: M1 (↑IPX), preferential response, Table 7; operational efficacy
// τ lookup, one value per entry
MEASUREMENT_KIND: τ

C[N+]1(Cc2ccc(Br)s2)CC=CCC1.[I-] (stereo not shown) [Compound 7C]
0.02
Brc1ccc(CN2CC=CCC2)s1.Cl [Compound 6C]
0.03
C[N+]1(Cc2ccc(Cl)s2)CC=CCC1.[I-] (stereo not shown) [Compound 7D]
0.26
C[N+]1(Cc2cccs2)CC=CCC1.[I-] (stereo not shown) [Compound 7A]
0.12
Cc1ccc(CN2CC=CCC2)s1.Cl [Compound 6B]
0.03
C1=CCN(Cc2cccs2)CC1.Cl [Compound 6A]
0.03
Cc1ccc(C[N+]2(C)CC=CCC2)s1.[I-] (stereo not shown) [Compound 7B]
0.09

* * *

- TARGET_ENTITY: M2 muscarinic receptor (Homo sapiens, UniProt P08172)
- Sequence (P08172 1-466): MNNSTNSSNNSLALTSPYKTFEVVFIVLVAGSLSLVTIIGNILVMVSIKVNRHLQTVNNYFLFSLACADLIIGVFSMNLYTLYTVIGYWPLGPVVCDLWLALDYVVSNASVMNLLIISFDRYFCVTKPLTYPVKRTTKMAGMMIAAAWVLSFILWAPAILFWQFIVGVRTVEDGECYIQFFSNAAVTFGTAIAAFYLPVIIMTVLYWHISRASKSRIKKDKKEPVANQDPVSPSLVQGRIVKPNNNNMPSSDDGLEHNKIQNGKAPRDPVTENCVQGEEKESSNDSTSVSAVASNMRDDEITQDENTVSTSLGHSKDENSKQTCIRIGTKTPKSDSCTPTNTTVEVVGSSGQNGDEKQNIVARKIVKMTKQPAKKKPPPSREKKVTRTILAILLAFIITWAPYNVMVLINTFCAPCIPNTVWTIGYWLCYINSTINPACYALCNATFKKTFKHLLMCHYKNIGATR
- MEASUREMENT_NOTES: inhibition of forskolin-stimulated cAMP, M2 CHO cells (M2Gi)
- Type: cell-based
- Parameters: host or cells: CHO cells, stably transfected
- CONDITION_SET: M2Gi (↓cAMP), Table 8
Recorded E′MAX for the following compounds
MEASUREMENT_KIND: E′MAX (% inhibition)

C[N+](C)(C)CCOC(N)=O [carbachol, reference compound]
44
O=C1CCCN1CC#CCN1CCCC1 [oxotremorine, reference compound]
43
C1=CCN(Cc2cccs2)CC1.Cl
50
C[N+]1(Cc2cccs2)CC=CCC1.[I-] (stereo not shown)
53
